system under test: Human immunodeficiency virus type 1 integrase (Human immunodeficiency virus 1, UniProt Q7ZJM1)
Sequence (Q7ZJM1 whole entry): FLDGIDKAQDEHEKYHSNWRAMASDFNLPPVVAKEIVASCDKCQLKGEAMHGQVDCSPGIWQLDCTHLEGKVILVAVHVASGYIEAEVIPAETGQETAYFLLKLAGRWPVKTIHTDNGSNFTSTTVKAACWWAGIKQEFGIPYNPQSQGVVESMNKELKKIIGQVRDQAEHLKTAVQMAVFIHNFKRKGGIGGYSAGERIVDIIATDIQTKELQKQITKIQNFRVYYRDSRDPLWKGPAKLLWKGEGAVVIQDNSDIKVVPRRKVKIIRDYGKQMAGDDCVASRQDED
run description: Apparent binding affinity to His-tagged HIV integrase
condition: read-out: Kd(app)
Decide using Kd alone. Strictly below 1000 nM: Condition met. Equal to or above 1000 nM: Condition not met.

> print(dat)
                        structure.as.smiles         class.name
1  Cc1nc2c(c(-c3ccc4c(c3)CCCO4)c1[C@H](OC(C)(C)C)C(=O)O)Cc1ccccc1-2      Condition met
2  Cc1nc2c(c(-c3ccc4c(c3)CCCO4)c1[C@H](OC(C)(C)C)C(=O)O)CCCc1ccccc1-2  Condition not met
3  Cc1nc2c(ccc3ccccc32)c(-c2ccc3c(c2)CCCO3)c1[C@H](OC(C)(C)C)C(=O)O      Condition met
4  Cc1nc2ccccc2c(-c2ccc3c(c2)CCCO3)c1[C@H](OC(C)(C)C)C(=O)O      Condition met

// provenance: ChEMBL document CHEMBL3286143
